Attribution: patent US10189809B2

For each of the compounds below, state its Emax.
# experimental_system: soluble guanylate cyclase (sGC) (Homo sapiens (Human), UniProt Q02108+Q02153)
# Sequence (Q02153 whole entry): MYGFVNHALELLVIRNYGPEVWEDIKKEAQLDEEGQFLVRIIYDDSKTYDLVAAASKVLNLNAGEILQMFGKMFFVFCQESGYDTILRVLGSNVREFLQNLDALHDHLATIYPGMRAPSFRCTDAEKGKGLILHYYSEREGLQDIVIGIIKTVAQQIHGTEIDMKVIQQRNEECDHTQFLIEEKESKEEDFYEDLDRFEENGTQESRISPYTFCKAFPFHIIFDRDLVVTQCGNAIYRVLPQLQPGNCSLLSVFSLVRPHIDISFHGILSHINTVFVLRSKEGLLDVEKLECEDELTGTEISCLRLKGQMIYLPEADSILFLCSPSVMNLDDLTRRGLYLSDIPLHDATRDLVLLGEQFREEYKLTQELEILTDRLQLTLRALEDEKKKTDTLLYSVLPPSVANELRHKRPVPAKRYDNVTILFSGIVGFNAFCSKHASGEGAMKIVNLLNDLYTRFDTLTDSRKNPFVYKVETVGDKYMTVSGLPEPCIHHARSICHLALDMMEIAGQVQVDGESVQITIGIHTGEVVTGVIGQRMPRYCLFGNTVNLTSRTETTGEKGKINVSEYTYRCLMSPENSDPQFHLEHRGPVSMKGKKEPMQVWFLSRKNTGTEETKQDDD
# Sequence (Q02108 whole entry): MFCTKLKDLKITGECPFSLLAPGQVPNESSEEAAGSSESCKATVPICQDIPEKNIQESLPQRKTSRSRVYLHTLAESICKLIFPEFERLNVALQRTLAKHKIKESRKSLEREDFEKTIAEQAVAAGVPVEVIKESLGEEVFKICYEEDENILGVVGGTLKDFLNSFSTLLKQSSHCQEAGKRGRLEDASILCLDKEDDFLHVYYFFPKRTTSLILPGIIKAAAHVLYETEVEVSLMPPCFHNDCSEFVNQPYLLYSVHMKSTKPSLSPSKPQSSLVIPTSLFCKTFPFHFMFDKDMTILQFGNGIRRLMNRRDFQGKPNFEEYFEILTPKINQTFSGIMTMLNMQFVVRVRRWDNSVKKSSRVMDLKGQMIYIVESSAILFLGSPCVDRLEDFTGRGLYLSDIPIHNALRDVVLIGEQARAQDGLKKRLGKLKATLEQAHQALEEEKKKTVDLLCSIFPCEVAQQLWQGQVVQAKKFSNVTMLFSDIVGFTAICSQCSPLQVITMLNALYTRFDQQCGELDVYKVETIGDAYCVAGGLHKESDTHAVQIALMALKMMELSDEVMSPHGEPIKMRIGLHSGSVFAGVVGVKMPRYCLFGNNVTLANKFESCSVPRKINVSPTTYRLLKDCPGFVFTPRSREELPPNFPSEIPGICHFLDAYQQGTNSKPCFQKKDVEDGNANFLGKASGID
# measurement_description: sGC-HEK-cGMP assay run with SNP incubation (HEK WC assay)
# Type: cell-based
# test_parameters: read-out: HEK WC Assay (% Emax at 10 μM with 10 uM SNP)

stdin: Tell me the measured Emax of "Nc1nc(-c2cc(-c3ccon3)n(Cc3ccccc3F)n2)ncc1NC(=O)c1cccc(Cl)c1" , please.
stdout: 60 to 80%

stdin: Same question, "C/C=C(\C)C(=O)Nc1cnc(-c2cc(-c3ccon3)n(Cc3ccccc3F)n2)nc1N" this time
stdout: 60 to 80%

stdin: Same question, "Oc1coc(-c2cc(-c3ncccn3)nn2Cc2ccccc2F)n1" this time
stdout: 0 to 10%

* * *

# experimental_system: soluble guanylate cyclase (sGC) (Homo sapiens (Human), UniProt Q02108+Q02153)
# measurement_description: sGC-HEK-cGMP assay run with SNP incubation (HEK WC assay)
# Type: cell-based
# test_parameters: read-out: HEK WC Assay (% Emax at 10 μM/with 10 uM SNP)
For each of the molecules below, state its Emax at 10 µM.

stdin: Form entry - test system: soluble guanylate cyclase (sGC) (Homo sapiens (Human), UniProt Q02108+Q02153); read-out: Emax at 10 µM; molecule: "CCOC(=O)c1cnc(-c2cc(-c3ccon3)n(Cc3ccccc3F)n2)nc1Cl"
stdout: 60 to 80%

stdin: Same question, "Nc1ccnc(-c2cc(-c3ncco3)n(Cc3ccccc3F)n2)n1" this time
stdout: 60 to 80%

stdin: Same question, "Nc1ccnc(-c2cc(-c3cocn3)n(Cc3ccccc3F)n2)n1" this time
stdout: 20 to 40%

stdin: Same question, "CC(C)(O)c1cnc(-c2cc(-c3ccon3)n(Cc3ccccc3F)n2)nc1O" this time
stdout: 20 to 40%

stdin: Same question, "Cc1cccc(-c2cc(-c3ncccn3)nn2Cc2ccccc2F)n1" this time
stdout: 0 to 10%

* * *

# experimental_system: soluble guanylate cyclase (sGC) (Homo sapiens (Human), UniProt Q02108+Q02153)
# measurement_description: sGC-HEK-cGMP assay run with SNP incubation (HEK WC assay)
# Assay type: cell-based
# test_parameters: read-out: HEK WC Assay (% Emax at 10 uM/with 10 uM SNP)
result_type: Emax at 10 µM

stdin: Tell me the measured Emax at 10 µM of "Fc1ccccc1Cn1nc(-c2ccccn2)cc1C1CCC1" , please.
stdout: 0 to 10%

stdin: Same question, "Fc1ccccc1Cn1nc(-c2ccccn2)cc1-c1ccsc1" this time
stdout: 20 to 40%

stdin: Same question, "Cc1cccc(-c2cc(-c3ccccn3)nn2Cc2ccccc2F)c1" this time
stdout: 0 to 10%

stdin: Same question, "COc1cccc(-c2cc(-c3ncccn3)n(Cc3ccccc3F)n2)n1" this time
stdout: 0 to 10%

* * *

# experimental_system: soluble guanylate cyclase (sGC) (Homo sapiens (Human), UniProt Q02108+Q02153)
# measurement_description: sGC-HEK-cGMP assay run with SNP incubation (HEK WC assay)
# Format: cell-based
# test_parameters: read-out: HEK WC Assay (% Emax at 10 μM/with 10 uM SNP)
result_type: Emax at 10 µM

stdin: Tell me the measured Emax at 10 µM of "Nc1ccnc(-c2cc(-c3ccccc3)n(Cc3ccccc3F)n2)n1" , please.
stdout: 10 to 20%

stdin: Same question, "CC(=O)Nc1cnc(-c2cc(-c3ccon3)n(Cc3ccccc3F)n2)nc1N" this time
stdout: 100 to 120%

stdin: Same question, "Nc1cc(N)nc(-c2cc(-c3ccon3)n(Cc3ccccc3F)n2)n1" this time
stdout: 20 to 40%

stdin: Same question, "Nc1ccnc(-c2cc(-c3ccon3)n(Cc3ccccc3F)n2)n1" this time
stdout: 40 to 60%

stdin: Same question, "Nc1ccnc(-c2cc(-c3nccs3)n(Cc3ccccc3F)n2)n1" this time
stdout: 40 to 60%

stdin: Same question, "CN(C(=O)OC(C)(C)C)c1cnc(-c2cc(-c3ccon3)n(Cc3ccccc3F)n2)nc1N" this time
stdout: 80 to 100%

stdin: Same question, "Nc1nc(-c2cc(-c3ccon3)n(Cc3ccccc3F)n2)ncc1-c1cccnc1" this time
stdout: 60 to 80%

stdin: Same question, "Nc1nc(-c2cc(-c3ccon3)n(Cc3ccccc3F)n2)ncc1C(F)(F)F" this time
stdout: 20 to 40%

stdin: Same question, "COc1ccc(CNc2nc(-c3cc(-c4ccon4)n(Cc4ccccc4F)n3)ncc2C(C)(C)O)cc1" this time
stdout: 0 to 10%

stdin: Same question, "COC(=O)N(C)c1cnc(-c2cc(-c3ccon3)n(Cc3ccccc3F)n2)nc1N" this time
stdout: 80 to 100%

stdin: Same question, "N#Cc1cnc(-c2cc(-c3ccon3)n(Cc3ccccc3F)n2)nc1O" this time
stdout: 60 to 80%

stdin: Same question, "Nc1nc(-c2cc(-c3ccon3)n(Cc3ccccc3F)n2)ncc1-c1ccccc1" this time
stdout: 20 to 40%

stdin: Same question, "CCOC(=O)c1cnc(-c2cc(-c3ccon3)n(Cc3ccccc3F)n2)nc1O" this time
stdout: 40 to 60%

stdin: Same question, "Nc1ccnc(-c2cc(-c3cscn3)n(Cc3ccccc3F)n2)n1" this time
stdout: 20 to 40%

stdin: Same question, "COC(=O)Nc1c(N)nc(-c2cc(-c3ccsc3)n(Cc3ccccc3F)n2)nc1N" this time
stdout: 10 to 20%

stdin: Same question, "CS(=O)(=O)c1cnc(-c2cc(-c3ccon3)n(Cc3ccccc3F)n2)nc1N" this time
stdout: 0 to 10%

stdin: Same question, "Cn1c(=O)[nH]c2nc(-c3cc(-c4nccs4)n(Cc4ccccc4F)n3)nc(N)c21" this time
stdout: 20 to 40%

stdin: Same question, "Nc1nc(-c2cc(-c3ccon3)n(Cc3ccccc3F)n2)ncc1-c1ccccn1" this time
stdout: 60 to 80%

stdin: Same question, "CC(C)(C)NC(=O)c1cnc(-c2cc(-c3ccon3)n(Cc3ccccc3F)n2)nc1N" this time
stdout: 20 to 40%

* * *

# experimental_system: soluble guanylate cyclase (sGC) (Homo sapiens (Human), UniProt Q02108+Q02153)
# measurement_description: sGC-HEK-cGMP assay run with SNP incubation (HEK WC assay)
# Type: cell-based
# test_parameters: read-out: HEK WC Assay (% Emax at 1 μM with 10 uM SNP)
result_type: Emax

stdin: Form entry - test system: soluble guanylate cyclase (sGC) (Homo sapiens (Human), UniProt Q02108+Q02153); read-out: Emax; compound: CC1(C(=O)Nc2cnc(-c3cc(-c4ccon4)n(Cc4ccccc4F)n3)nc2N)CC1(Cl)Cl (stereo not shown)
stdout: 80 to 100%

stdin: Same question, "CC(C)(C(=O)Nc1cnc(-c2cc(-c3ccon3)n(Cc3ccccc3F)n2)nc1N)c1ccccc1" this time
stdout: 20 to 40%

stdin: Same question, "Nc1nc(-c2cc(-c3ccon3)n(Cc3ccccc3F)n2)ncc1NC(=O)C1(C(F)(F)F)CCC1" this time
stdout: 40 to 60%

stdin: Same question, "CC(C)(C)NC(=O)c1cnc(-c2cc(-c3ccon3)n(Cc3ccccc3F)n2)nc1N" this time
stdout: 40 to 60%

stdin: Same question, "Nc1nc(-c2cc(-c3ncco3)n(Cc3ccccc3F)n2)ncc1NC(=O)c1ccccc1" this time
stdout: 60 to 80%

stdin: Same question, "Nc1nc(-c2cc(-c3ccon3)n(Cc3ccccc3F)n2)ncc1NC(=O)CCCCl" this time
stdout: 60 to 80%

stdin: Same question, "Nc1nc(-c2cc(-c3ccon3)n(Cc3ccccc3F)n2)ncc1N1CCCC1=O" this time
stdout: 20 to 40%

stdin: Same question, "CC(C)(C(=O)Nc1cnc(-c2cc(-c3ccon3)n(Cc3ccccc3F)n2)nc1N)n1cncn1" this time
stdout: 10 to 20%

stdin: Same question, "Fc1cccc(Cn2nc(-c3ncccn3)cc2-c2ccon2)c1F" this time
stdout: 40 to 60%

stdin: Same question, "CS(=O)(=O)c1cnc(-c2cc(-c3ccon3)n(Cc3ccccc3F)n2)nc1O" this time
stdout: 20 to 40%

* * *

# experimental_system: soluble guanylate cyclase (sGC) (Homo sapiens (Human), UniProt Q02108+Q02153)
# measurement_description: sGC-HEK-cGMP assay run with SNP incubation (HEK WC assay)
# Assay type: cell-based
# test_parameters: read-out: HEK WC Assay (% Emax at 10 μM/with 10 uM SNP)
result_type: Emax at 10 µM

stdin: Form entry - test system: soluble guanylate cyclase (sGC) (Homo sapiens (Human), UniProt Q02108+Q02153); read-out: Emax at 10 µM; compound: "Fc1ccccc1Cn1nc(-c2ncccn2)cc1-c1ccccn1"
stdout: 10 to 20%

stdin: Same question, "Nc1cc(C(F)(F)F)nc(-c2cc(-c3ccon3)n(Cc3ccccc3F)n2)n1" this time
stdout: 10 to 20%

stdin: Same question, "Cc1cccc(-c2cc(-c3ncccn3)n(Cc3ccccc3F)n2)n1" this time
stdout: 0 to 10%

stdin: Same question, "Nc1nc(-c2cc(-c3ccon3)n(Cc3ccccc3F)n2)ncc1N=C(c1ccccc1)c1ccccc1" this time
stdout: 10 to 20%
